# System: T. brucei brucei BSF
# test: T. brucei BSF viability, resazurin reduction
# Assay type: cell-based, Trypanosoma brucei brucei
# condition notes: Trypanosoma brucei, 25 µM; read-out: viability, T.brucei (25 µM)
List of viability at 25 µM values.
Express it in %; write the number only.

Previously resolved entries follow.
molecule	viability at 25 µM, %
O=C(Cc1ccc2ccccc2c1)NC(Cc1ccccc1)C(O)CN1CCN(Cc2ccccc2)CC1 (centres unmarked)	2.92
COc1ccc(NC[C@H](O)[C@@H](N)Cc2ccccc2)cc1	2.38
N[C@@H](Cc1ccccc1)[C@@H](O)CNc1ccc(F)cc1F	2.18

[ask] Tell me measured viability at 25 µM for N[C@@H](Cc1ccccc1)[C@@H](O)CNc1ccc(F)cc1 please.
[reply] 2.26

[ask] Tell me measured viability at 25 µM for CC(C)(C)OC(=O)NC(Cc1ccccc1)C(O)CNc1ccc(OC(F)(F)F)cc1 (centres unmarked) please.
[reply] 1.99

[ask] Tell me measured viability at 25 µM for CC(=O)c1ccc(NC[C@H](O)[C@@H](N)Cc2ccccc2)cc1 please.
[reply] 2.18

---

# System: T. brucei brucei BSF
# test: T. brucei BSF viability, resazurin reduction
# Type: cell-based, Trypanosoma brucei brucei
# condition notes: Trypanosoma brucei, 25 µM; read-out: viability, T.brucei (25 µM)
quantity kind: viability at 25 µM (%)
Express it in %; write the number only.

Previously resolved entries follow.
molecule	viability at 25 µM, %
CC(C)(C)OC(=O)NC(Cc1ccccc1)C(O)CNc1ccc(C(C)(C)C)cc1 (centres unmarked)	2.22
O=C(CCc1ccc(Br)cc1)NC(Cc1ccccc1)C(O)CN1CCN(Cc2ccccc2)CC1 (centres unmarked)	2.86
N[C@@H](Cc1ccccc1)[C@@H](O)CNc1cccc(C(F)(F)F)c1	2.21
Cc1ccc(NC[C@H](O)[C@@H](N)Cc2ccccc2)cc1	2.22

[ask] Tell me measured viability at 25 µM for Cc1cccc(C)c1NC[C@H](O)[C@@H](N)Cc1ccccc1 please.
[reply] 2.06

---

# System: L. major axenic amastigotes
# test: L. major axenic amastigote viability, resazurin reduction
# condition notes: Leishmania major, 72 h, read-out: Residual viability, L.major amastigote (2.5 µM)
List of viability at 2.5 µM values.
Express it in %; write the number only.

[ask] Tell me measured viability at 2.5 µM for C[C@@H]1[C@H](O)[C@@H](C)/C=C/C=C/C=C/C=C/C=C/C=C/C=C/[C@H](O[C@@H]2O[C@H](C)[C@@H](O)[C@H](N)[C@@H]2O)C[C@@H]2O[C@](O)(C[C@@H](O)C[C@@H](O)[C@H](O)CC[C@@H](O)C[C@@H](O)CC(=O)O[C@H]1C)C[C@H](O)[C@H]2C(=O)O [AmB, amphotericin B, reference compound] please.
[reply] 2.71

---

# Tested on: T. cruzi trypomastigotes
# test: T. cruzi viability, resazurin reduction
# Assay type: cell-based, Trypanosoma cruzi
# condition notes: Trypanosoma cruzi, 25 µM; read-out: viability, T.cruzi (25 µM)
True if viability at 25 µM is below 20%. False if not; exact matches included in False.

compound	category label
N[C@@H](Cc1ccccc1)[C@@H](O)CNc1cccc(C(F)(F)F)c1 [LTC-1029]	True

[ask] Is 20% strictly greater than the compound's reported viability at 25 µM? compound: CC(C)(C)OC(=O)NC(Cc1ccccc1)C(O)CNc1cccc(C(F)(F)F)c1 (stereo not shown) [LTC-1025]
[reply] False

[ask] Is 20% strictly greater than the compound's reported viability at 25 µM? compound: COc1ccc(NC[C@H](O)[C@@H](N)Cc2ccccc2)cc1 [LTC-1042]
[reply] True

[ask] Is 20% strictly greater than the compound's reported viability at 25 µM? compound: CC(C)(C)OC(=O)NC(Cc1ccccc1)C(O)CNc1ccc(C(C)(C)C)cc1 (stereo not shown) [LTC-1035]
[reply] False

[ask] Is 20% strictly greater than the compound's reported viability at 25 µM? compound: O=C(Cc1ccc2ccccc2c1)NC(Cc1ccccc1)C(O)CN1CCN(Cc2ccccc2)CC1 (stereo not shown) [LTC-6]
[reply] True

[ask] Is 20% strictly greater than the compound's reported viability at 25 µM? compound: CC(C)(C)c1ccc(NC[C@H](O)[C@@H](N)Cc2ccccc2)cc1 [LTC-1034]
[reply] False
